# GI50 per record follows
- Tested on: SNB-19
- PROTOCOL_TEXT: NCI tumour cell line growth inhibition, 48 h
Active and inactive are the calls of the source. Rule as the data show it: active = GI50 up to about 1.1 µM and inactive = higher.

Example entries begin here.
compound=O=C(O)c1ccc([Se][Se]c2ccc(C(=O)O)cc2)cc1 reported_endpoint=GI50 result="34.1 µM (inactive)"
compound=Cc1ccc(/N=C/C=C(\Nc2ccc(C)cc2)c2ccc3ccccc3c2)cc1 reported_endpoint=GI50 result="1.68 µM (inactive)"
compound=[N-]=[N+]=C(C(=O)C(=[N+]=[N-])C(=O)c1ccccc1)C(=O)c1ccccc1 reported_endpoint=GI50 result="> 100 µM (inactive)"
compound="C=C1C(=O)OC2(C)CCC1CC1OC1(C)CCC=C(C)CCC2O (stereo unspecified)" reported_endpoint=GI50 result="> 100 µM (inactive)"
compound=COc1cc2nc(-c3cccc(N(C)C)c3)cc(O)c2cc1OC reported_endpoint=GI50 result="4.98 µM (inactive)"

Consider the additional compound presented here.
Looking up O=C(O)C1=C(Cl)c2ccccc2S1(=O)=O , I see its GI50 listed as > 100 µM (inactive)

###

- System: IGROV-1
- PROTOCOL_TEXT: NCI tumour cell line growth inhibition, 48 h
Activity calls are given as the source filed them. Rule as the data show it: active = GI50 up to about 1.1 µM and inactive = higher.
# GI50 per record follows

Looking up CCOC(=O)/N=c1/nc(N(C)C)ss1 , I see its GI50 listed as > 100 µM (inactive)

Looking up CCOC(=O)C1=CC(C)(C(=O)OCC)Nc2c(nc(N)[nH]c2=O)N1 (stereo unspecified) , I see its GI50 listed as > 10 µM (inactive)

Looking up C[Si]1(C)C(c2ccccc2)=CC2C(c3ccccc3)(c3ccccc3)OC21c1ccccc1 (stereo unspecified) , I see its GI50 listed as > 100 µM (inactive)

Looking up CCOc1ccccc1/N=N/c1ccc2oc(=O)c(C(C)=O)cc2c1 , I see its GI50 listed as > 100 µM (inactive)

Looking up O=C1CCCc2ccc3c(c21)CC1(Cc2cc4c(cc2C1)CCCC4)C3 , I see its GI50 listed as 24.7 µM (inactive)

Looking up CCCCCCCCCCCCCC(=O)NCO , I see its GI50 listed as > 100 µM (inactive)

###

# GI50 per record follows
- System: RXF 393
- PROTOCOL_TEXT: NCI tumour cell line growth inhibition, 48 h
The source made the active and inactive calls. Rule as the data show it: active = GI50 up to about 1.1 µM and inactive = higher.

Example entries begin here.
compound=Nc1nc(S)c2c(N)n[nH]c2c1C(=O)Nc1ccccc1 tested_on="RXF 393" result="> 100 µM (inactive)"
compound=CCC1(CC)C(=O)N(C(=O)c2ccc(C)cc2)N(C(=O)c2ccc(C)cc2)C1=O tested_on="RXF 393" result="> 75 µM (inactive)"
compound="CC1CC(=O)NC2CC1C2(C)C (stereo unspecified)" tested_on="RXF 393" result="> 100 µM (inactive)"
compound=Cc1ccc(NC(=O)CCCC(=O)CC(=O)c2ccc(Br)cc2)cc1 tested_on="RXF 393" result="> 100 µM (inactive)"
compound=[N-]=[N+]=C(C(=O)C(=[N+]=[N-])C(=O)c1ccccc1)C(=O)c1ccccc1 tested_on="RXF 393" result="> 100 µM (inactive)"

Consider the additional compound presented here.
Looking up Cc1ccc(S(=O)(=O)NC(=O)C2C(=O)CC3(CCCCC3)CC2=O)cc1 , I see its GI50 listed as 38.3 µM (inactive)

###

- System: SK-MEL-5
- PROTOCOL_TEXT: NCI tumour cell line growth inhibition, 48 h
Activity calls are given as the source filed them. Rule as the data show it: active = GI50 up to about 1.1 µM and inactive = higher.
# GI50 per record follows

Looking up CCOc1ccccc1/N=N/c1ccc2oc(=O)c(C(C)=O)cc2c1 , I see its GI50 listed as > 100 µM (inactive)

Looking up CC[n+]1[b-](C(C)(C)C)n(/N=C(\C)C(C)(C)C)[b-](C(C)(C)C)[n+]1CC , I see its GI50 listed as > 100 µM (inactive)

Looking up NC(Cc1cc(I)c(Oc2ccc(O)c(I)c2)c(I)c1)C(=O)O (stereo not given) [RATHYRONINE] , I see its GI50 listed as 37.6 µM (inactive)

Looking up O=C1/C(=N\NC(=S)NC2CCCCC2)c2cc([N+](=O)[O-])ccc2N1CN1CCOCC1 , I see its GI50 listed as 3.16 µM (inactive)

###

- System: CCRF-CEM
- PROTOCOL_TEXT: NCI tumour cell line growth inhibition, 48 h
Calls of active or inactive are those of the source. Cut-off read from the data, not from the text of the source: active = GI50 up to about 1.1 µM and inactive = higher.
# GI50 per record follows

Example entries begin here.
compound="O=C1C2=C(c3ccccc31)C(c1ccc([N+](=O)[O-])cc1)NC(S)=N2 (stereo unspecified)" result="38.7 µM (inactive)"
compound=CN(C)c1ccc(/C=N\NC(=O)Nc2cccc3ccccc23)cc1 result="4.26 µM (inactive)"
compound=O=C(/C=C/c1c(O)ccc2ccccc12)c1cccc(O)c1 result="30.1 µM (inactive)"
compound=COc1ccc(CNc2nc3cc(C(F)(F)F)ccc3nc2C)cc1OC result="31.9 µM (inactive)"

Looking up CC(O)C(O)C(N)CC=O (stereo unspecified) , I see its GI50 listed as > 500 µM (inactive)

Looking up CO/C(N)=C(C#N)/N=C/c1ccccc1 , I see its GI50 listed as 50 µM (inactive)

###

- Test system: SK-MEL-2
- PROTOCOL_TEXT: NCI tumour cell line growth inhibition, 48 h
Active and inactive are the calls of the source. Cut-off read from the data, not from the text of the source: active = GI50 up to about 1.1 µM and inactive = higher.
Choose one outcome from this list and give only that: active, inactive

molecule="CC(CO)(Nc1ccc([N+](=O)[O-])cc1[N+](=O)[O-])C(=O)O (configuration not stated)" tested_on=SK-MEL-2 group=inactive
molecule=O=c1cc(-c2ccccc2)[nH]c2cc(Cl)cc(Cl)c12 tested_on=SK-MEL-2 group=inactive
molecule=Cc1nc(C(N)=S)sc1C(=O)CC(=O)C(=O)Nc1cccc(Cl)c1C tested_on=SK-MEL-2 group=inactive
molecule=CCOC(=O)O/N=C1/C(=C2/C(=O)Nc3ccccc32)Nc2ccccc21 tested_on=SK-MEL-2 group=inactive
molecule=Cc1cc(N2CCN(C)CC2)n2nc(-c3ccc(Cl)cc3)nc2n1 tested_on=SK-MEL-2 group=inactive
molecule="COC(=O)CC(NC(=O)OCc1ccccc1)C(C(=O)OCc1ccccc1)C(C)(OC)OC (configuration not stated)" tested_on=SK-MEL-2 group=inactive
molecule=CS/C(=N\S(=O)(=O)c1ccc(Cl)cc1)NCCN/C(=N/S(=O)(=O)c1ccc(Cl)cc1)SC tested_on=SK-MEL-2 group=inactive
molecule="Cc1cccc2c1CC(C1OC(=O)c3ccccc31)C2=O (configuration not stated)" tested_on=SK-MEL-2 group=inactive

Data request: Record request — test call for C[N+](C)(C)C1=NNC2=Nc3ccccc3SC2=C1
Data returned: inactive

Data request: Record request — test call for O=C1CCCc2ccc3c(c21)CC1(Cc2cc4c(cc2C1)CCCC4)C3
Data returned: inactive

Data request: Record request — test call for O=C1/C(=C/c2ccccc2)CCC/C1=C\c1ccc(O)c(CN2CCCCC2)c1
Data returned: inactive

Data request: Record request — test call for [O-][Cl+3]([O-])([O-])[O-].c1ccc(-c2[o+]c(-c3ccccc3)c(-c3ccccc3)c(-c3ccccc3)c2-c2ccccc2)cc1
Data returned: inactive

Data request: Record request — test call for S=C(N/N=C(/c1ccccc1)c1ccccn1)N1CCCCC1
Data returned: active

Data request: Record request — test call for COC(=O)c1cncc2c1CC1C3(C(=O)OC)C=NC(C4C(CO)=CCC43)C21C (configuration not stated)
Data returned: inactive

Data request: Record request — test call for COC12C=CC(CC1)c1c(O)ccc(O)c12 (configuration not stated)
Data returned: inactive

Data request: Record request — test call for COc1cc(CNC(=O)CCCCCCCCCCSSCCCCCCCCCCC(=O)NCc2ccc(O)c(OC)c2)ccc1O
Data returned: inactive

###

- Tested on: 786-0
- PROTOCOL_TEXT: NCI tumour cell line growth inhibition, 48 h
Calls of active or inactive are those of the source. No stated cut-off is given here; in the data, active = GI50 up to about 1.1 µM and inactive = higher.
Choose one outcome from this list and give only that: active, inactive

Here's what some known entries look like.
compound="Cc1ccc(/C=C2\\CN(C)CC3C(c4ccc(C)cc4)=C(C#N)C(=O)NC23)cc1 (configuration not stated)" tested_on=786-0 group=inactive
compound="COc1cc(C(C#N)NNC(=O)Cc2ccccc2)cc(OC)c1OC (configuration not stated)" tested_on=786-0 group=inactive
compound="CC(C)Cc1cc2c(cc1O)CCC1C2CC[C@@]2(C)C1CC[C@@H]2O (some centres not stated)" tested_on=786-0 group=inactive
compound=Cc1ccc(NC(=O)C(=O)Cc2cccc[n+]2[O-])cc1C tested_on=786-0 group=inactive
compound="COC12C=CC(CC1)c1c(O)ccc(O)c12 (configuration not stated)" tested_on=786-0 group=inactive

Proceed to the following item.
Data request: Record request — test call for NC1=Nc2ccccc2Sc2nnc(-c3ccc(Cl)cc3)n21
Data returned: inactive

###

- Test system: OVCAR-3
- PROTOCOL_TEXT: NCI tumour cell line growth inhibition, 48 h
Active and inactive are the calls of the source. No stated cut-off is given here; in the data, active = GI50 up to about 1.1 µM and inactive = higher.
REPORTED_ENDPOINT: GI50

Example entries begin here.
compound="Cc1cccc(N(C(=O)Nc2ccc(Cl)c(Cl)c2)C2=NCC(C)S2)c1 (stereo unspecified)" reported_endpoint=GI50 result="74.5 µM (inactive)"
compound=Cc1cc(N2CCCCC2)nc2ccc(Cc3ccc4nc(N5CCCCC5)cc(C)c4c3)cc12 reported_endpoint=GI50 result="> 100 µM (inactive)"

Looking up CCOc1ccccc1/N=N/c1ccc2oc(=O)c(C(C)=O)cc2c1 , I see its GI50 listed as > 100 µM (inactive)

Looking up CCOC(=O)C1CCC(=O)N1C(=O)c1cccc(Cl)c1 (stereo unspecified) , I see its GI50 listed as > 100 µM (inactive)

Looking up C/C(=C(/C)c1cc[n+](C)cc1)c1cc[n+](C)cc1 , I see its GI50 listed as 9.12 µM (inactive)

Looking up O=C(/C=C/c1ccc2c(c1)OCO2)NCc1ccco1 , I see its GI50 listed as 82.2 µM (inactive)

Looking up CC1(C)CC(/C=C2/OC(=O)c3ccccc32)=C(C#N)C(=O)O1 , I see its GI50 listed as > 100 µM (inactive)

Looking up CC(CO)(Nc1ccc([N+](=O)[O-])cc1[N+](=O)[O-])C(=O)O (stereo unspecified) , I see its GI50 listed as 22.2 µM (inactive)

Looking up O=c1[nH]nc(Cc2ccc(Cl)cc2)n1/N=C\c1ccc(/C=N/n2c(Cc3ccc(Cl)cc3)n[nH]c2=O)cc1 , I see its GI50 listed as 81.7 µM (inactive)

Looking up C=CCc1ccc(Oc2cc(CC=C)c3c(c2O)O[C@@H](CO)[C@H]3c2ccc(O)c(-c3cc(CC=C)ccc3O)c2)cc1 , I see its GI50 listed as 33 µM (inactive)

Looking up CC(=O)NNc1nc(C)c(C(=O)/C=C/c2ccc(/C=C/C(=O)c3sc(NNC(C)=O)nc3C)cc2)s1 , I see its GI50 listed as > 100 µM (inactive)

Looking up O=c1[nH]nc(-c2ccccc2)n1-c1cccc([N+](=O)[O-])c1 , I see its GI50 listed as > 100 µM (inactive)

Looking up COc1cc(C2=C(c3cc(OC)c4ccccc4c3OC)C(=O)c3ccccc3C2=O)c(OC)c2ccccc12 , I see its GI50 listed as > 100 µM (inactive)

Looking up N#CC1=C(N)OC2=C(CCCc3ccc([N+](=O)[O-])cc32)C1c1ccccc1 (stereo unspecified) , I see its GI50 listed as 2.21 µM (inactive)

Looking up N#CNc1nc(C(=O)Nc2ccc(Cl)cc2)cc(-c2ccccc2)n1 , I see its GI50 listed as > 100 µM (inactive)

Looking up COP(=O)(OC)C(C)(C)NC(=O)NC(F)(F)F , I see its GI50 listed as > 100 µM (inactive)

Looking up N#CCC(=O)Nc1cccc(C(F)(F)F)c1 , I see its GI50 listed as 84.3 µM (inactive)

Looking up COc1ccc(/C(=N\NC(=O)C(N)=O)C(c2ccc(OC)cc2)C2(O)C(=O)Nc3c(Cl)cccc32)cc1 (stereo unspecified) , I see its GI50 listed as > 100 µM (inactive)

Looking up CC1CC(=O)C(CC(=O)O)[C@H]1C(C(=O)C(=O)Nc1cc(Cl)ccc1Cl)[N+](=O)[O-] (stereo partly specified) , I see its GI50 listed as > 100 µM (inactive)

Looking up COc1cc(NCC(C#N)C#N)ccc1/N=N/c1ccc(Cl)cc1 , I see its GI50 listed as 20.6 µM (inactive)

Looking up Oc1nc2cc3nc(O)c(O)nc3cc2nc1O , I see its GI50 listed as > 100 µM (inactive)

Where these numbers come from: ChEMBL document CHEMBL1201862
